AUC(0-inf) values for the compounds below.
Assay: Single oral and IV administration of 14C-3APS to rats
Type: in vivo, male Sprague-Dawley rats
Conditions: male, Sprague-Dawley, rat, plasma, po, 100 mg/kg, 100 mg/kg 14C-3APS, rats, individual animals 3001-3004
Please state the figure in µM·h; there is no need to write the unit.

- NCCCS(=O)(=O)O: 610

GET /values?readout=AUC(0-inf)&item= `O=C(O)CCS(=O)(=O)O`
232

###

Assay: Human whole blood stability
Type: in vitro ADME
Conditions: 37° C.
Structures can show the parent of a compound that is named as a salt.
Quantity name: Blood stability (% of compound remaining after 240 min.) Human Blood

- N[C@@H](Cc1c[nH]c2ccccc12)C(=O)NCCCS(=O)(=O)O: +++ (+++: >75%)
- CSCC[C@H](N)C(=O)NCCCS(=O)(=O)O: ++ (++: 30-75%)
- CC(OC(=O)CCC(=O)O)OC(=O)NCCCS(=O)(=O)O (stereo not shown): +++ (+++: >75%)
- CCC(C)[C@H](N)C(=O)NCCCS(=O)(=O)O (stereo partly shown): +++ (+++: >75%)
- CC(C)(CC(=O)O)CC(=O)NCCCS(=O)(=O)O [Compound B3, Sodium Salt]: +++ (+++: >75%)

GET /values?readout=Blood stability (% of compound remaining after 240 min.) Human Blood&item= CC(OC(=O)NCCCS(=O)(=O)O)OC(=O)C(C)(C)c1ccccc1 (stereo not shown)
+++ (+++: >75%)

GET /values?readout=Blood stability (% of compound remaining after 240 min.) Human Blood&item= CC(C)C(OC(=O)NCCCS(=O)(=O)O)OC(=O)C(C)(C)C (stereo not shown)
++ (++: 30-75%)

GET /values?readout=Blood stability (% of compound remaining after 240 min.) Human Blood&item= `CC(C)(CCC(=O)NCCCS(=O)(=O)O)C(=O)O`
+++ (+++: >75%)

GET /values?readout=Blood stability (% of compound remaining after 240 min.) Human Blood&item= `NCC(=O)NCCCS(=O)(=O)O`
++ (++: 30-75%)
